Source: patent US20250011363A1

Would you kindly list Binding affinity (RU) for each of these binders?
Molecular target: acetylcholine receptor
Experiment: SPR, receptor immobilized, peptide 10 uM
// return the numeric value with its unit appended

Q: Tell me Binding affinity (RU) reported for KYWFK [5mer-772]
A: 11 RU

Q: Tell me Binding affinity (RU) reported for RFWWKR [6mer-2-834]
A: 28 RU

Q: Tell me Binding affinity (RU) reported for KKSLSK [6mer-1-162]
A: 142 RU

Q: Tell me Binding affinity (RU) reported for KFSVR [5mer-1083]
A: 31 RU

Q: Tell me Binding affinity (RU) reported for RTKKR [5mer-795]
A: 20 RU

Q: Tell me Binding affinity (RU) reported for KAMKRK [6mer-2-811]
A: 16 RU

Q: Tell me Binding affinity (RU) reported for RDTMKK [6mer-2-805]
A: 12 RU

Q: Tell me Binding affinity (RU) reported for RHCNRK [6mer-2-865]
A: 16 RU
